Reference source: ChEMBL document CHEMBL1201862

- Test system: HCT-116
- assay-remarks: NCI tumour cell line growth inhibition, 48 h
Active and inactive are the calls of the source. Cut-off read from the data, not from the text of the source: active = GI50 up to about 1.1 µM and inactive = higher.
assay-endpoint: GI50

Solved cases (4 shown):
compound	GI50
Cc1cc(C)n(CN(Cn2nc(C)cc2C)C2CCCCC2)n1	22.4 µM (inactive)
CO[C@]12CCC(=O)N1C=Cc1c2[nH]c2ccccc12	> 100 µM (inactive)
C/C(CC(=O)NCCc1ccccc1)=N\NC(=O)C[n+]1ccccc1	> 100 µM (inactive)
COC1C(O)C(C)OC(O[C@H]2CC[C@@]3(C)C(CC[C@@H]4[C@@H]3CC[C@]3(C)[C@@H](C(C)OC5OC(CO)C(O)C(O)C5O)CC[C@]43O)C2)C1O (stereo not given in full)	> 25 µM (inactive)

Let us move to another entry and its GI50.
Identify measured GI50 associated with `COC(=O)[C@H](C)NC(=O)[C@H](CSC)N1C(=O)N[C@@H](C(C)C)C1=O`
> 100 µM (inactive)

---

Each entry below carries its recorded GI50.
- Tested on: MDA-N
- assay-remarks: NCI tumour cell line growth inhibition, 48 h
Calls of active or inactive are those of the source. Rule as the data show it: active = GI50 up to about 1.1 µM and inactive = higher.

Known results for compounds:
                                   compound             observed
0  COc1cc(C)cc2c(-c3c(O)cc(O)c4c3C[C@H](C)N[C@H]4C)cc(-c3cc(-c4c(O)cc(O)c5c4C[C@H](C)N[C@H]5C)c4cc(C)cc(OC)c4c3O)c(O)c12     52 µM (inactive)
1  C1=C2C3=[N+](CCCC3)CC2Cc2sccc21 (stereo not drawn)  > 100 µM (inactive)

Moving on to another compound below.
Answer with the recorded GI50 of N#CC1=C(N)C(C#N)(C#N)C(c2ccc(F)cc2)C=C1C1CC1 (stereo not drawn) only.
2.27 µM (inactive)

---

- Tested on: RPMI-8226
- assay-remarks: NCI tumour cell line growth inhibition, 48 h
The source made the active and inactive calls. Rule as the data show it: active = GI50 up to about 1.1 µM and inactive = higher.
assay-endpoint: GI50

# annotated cases, reported GI50 shown
molecule	GI50
Nc1n2nc(-c3ccccc3)sc2n[n+]1CC(=O)c1ccccc1	12.5 µM (inactive)
O=C(Nc1ccc(Cl)c(Cl)c1)OCCN1c2ccccc2Sc2ccccc21	> 10 µM (inactive)
CC(=O)Oc1c2c(c(CC=C(C)C)c3c1C(=O)C1=C[C@@H]4CC5C(C)(C)OC(C/C=C(/C)C(=O)O)(C4=O)[C@@]15O3)OC(C)(CCC=C(C)C)C=C2 (stereo not given in full)	0.184 µM (active)
CC1=C/C(=C2/N=C(N(C)C)SS2)C(C)=N1.[O-][Cl+3]([O-])([O-])O	> 100 µM (inactive)

Note: attention shifts to another entry.
Quickly give me recorded GI50 for `CCOC(=O)/C=C/C1=C(Br)[C@@]2(C)CC[C@@H]3c4ccc(O)cc4CC[C@H]3[C@@H]2C1`
2.17 µM (inactive)

---

- Test system: UACC-62
- assay-remarks: NCI tumour cell line growth inhibition, 48 h
Active and inactive are the calls of the source. No stated cut-off is given here; in the data, active = GI50 up to about 1.1 µM and inactive = higher.
Lab note: assign the record to one of TRUE for active, FALSE for inactive

>>> df
                                   molecule  label_class
0  COC(=O)C(CC(=O)c1ccccc1)c1ccccc1NC(C)=O (stereo unspecified)        FALSE
1  O=C(/C=C/c1ccc(O)c(O)c1)O[C@H]1CCCC[C@@H]1OC(=O)/C=C/c1ccc(O)c(O)c1        FALSE

What did the test return for O=C(NCCCCCCNC(=O)n1cc(F)c(=O)[nH]c1=O)NCCCOCCOCCCNC(=O)C(O)C(O)C(O)C(O)CO (stereo unspecified) ?
FALSE

What did this assay record as the result for `S=c1sc2c(Cl)ncnc2n1-c1ccccc1` ?
FALSE
